# System: UniProtKB P21554
# Sequence (P21554 whole entry): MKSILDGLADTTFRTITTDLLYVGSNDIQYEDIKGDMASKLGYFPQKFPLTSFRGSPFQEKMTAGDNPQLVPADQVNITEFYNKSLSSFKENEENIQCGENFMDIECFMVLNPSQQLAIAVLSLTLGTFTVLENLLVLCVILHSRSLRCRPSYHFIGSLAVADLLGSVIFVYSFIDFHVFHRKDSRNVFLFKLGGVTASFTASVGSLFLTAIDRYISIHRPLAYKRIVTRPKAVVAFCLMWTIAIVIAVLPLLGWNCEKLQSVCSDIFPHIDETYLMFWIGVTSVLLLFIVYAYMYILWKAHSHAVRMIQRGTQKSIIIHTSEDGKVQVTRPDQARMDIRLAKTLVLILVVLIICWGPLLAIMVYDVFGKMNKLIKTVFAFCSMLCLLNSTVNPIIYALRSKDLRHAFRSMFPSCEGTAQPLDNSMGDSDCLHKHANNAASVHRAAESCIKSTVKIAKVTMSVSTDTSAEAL
# Assay type: functional, cell-based, CHO-K1
# Description: Antagonist activity at human recombinant CB1 receptor expressed in CHO-K1 cells assessed as inhibition of CP-55940-stimulated GTPgammaS binding
Give measured pIC50 for each item. Keep answers brief.
Worth noting: pIC50 values are minus log10 of concentrations stated in mol/L.

Qu. Requested read-out: pIC50. Entry: N#CCc1c(C(=O)N2CCC(O)(c3ccc(F)cc3)CC2)nn(-c2ccccc2Cl)c1-c1ccc(Cl)cc1
Ans. 8.52

Qu. Requested read-out: pIC50. Entry: N#CCc1c(C(=O)N2CCC(O)(Cc3ccccc3)CC2)nn(-c2ccccc2Cl)c1-c1ccc(Cl)cc1
Ans. 8.47

Qu. Requested read-out: pIC50. Entry: N#CCc1c(C(=O)NCc2c(Cl)cccc2Cl)nn(-c2ccccc2Cl)c1-c1ccc(Cl)cc1
Ans. 8.15

Qu. Requested read-out: pIC50. Entry: N#CCc1c(C(=O)NN2CCCCCC2)nn(-c2ccccc2Cl)c1-c1ccc(Cl)cc1
Ans. 9.28

Qu. Requested read-out: pIC50. Entry: N#CCc1c(C(=O)NCc2ccc(Br)cc2F)nn(-c2ccccc2Cl)c1-c1ccc(Cl)cc1
Ans. 9.29

Qu. Requested read-out: pIC50. Entry: N#CCc1c(C(=O)NN2CCCCC2)nn(-c2ccccc2Cl)c1-c1ccc(Cl)cc1
Ans. 8.12

Entry source: ChEMBL document CHEMBL1153177
